max response reference
experiment: qHTS Assay for Lipid Storage Modulators (AID 1519); conditions: Drosophila S3 cells, BODIPY lipid droplet/cell ratio, laser cytometry; measured here: lipid channel max response; cells loaded with oleic acid
Records with an inconclusive call do not appear.
Only the number, expressed in %, is required.

Known results for compounds:
The recorded max response for `CC(C)[C@H]1CC[C@@H](C)C[C@H]1O` is -15.2

The recorded max response for C/C1=C2N=C(/C=C3N=C(/C(C)=C4\[N-]C(C)(C5N=C1C(C)(CCC(=O)NCC(C)OP(=O)([O-])O[C@H]1C(O)C(n6cnc7cc(C)c(C)cc76)O[C@@H]1CO)C5CC(N)=O)C(C)(CC(N)=O)C4CCC(N)=O)C(C)(CC(N)=O)C\3CCC(N)=O)C(C)(C)C/2CCC(N)=O.[CH2-]C1OC(n2cnc3c(N)ncnc32)C(O)C1O.[Co] (some centres not stated) is 29.7

Continuing:
The recorded max response for `NC[C@@H]1O[C@H](O[C@@H]2[C@H](O[C@@H]3O[C@H](CO)[C@@H](O)[C@@H]3O)[C@@H](O)[C@@H](N)C[C@H]2N)[C@@H](N)[C@H](O)[C@@H]1O` is -11.1

The recorded max response for COc1cc(C(=O)OC2CC[C@]3(C)C4CCC5[C@]6(O)CC(O)[C@]7(O)C(CN8CC(C)CCC8[C@]7(C)O)[C@]6(O)C[C@@]53O[C@]24O)cc(OC)c1OC (some centres not stated) is 24.2

The recorded max response for C[C@@]12CCC(=O)C=C1C=CC1C2CC[C@]2(C)C1CC[C@@]21CCC(=O)O1 (some centres not stated) is 12.9

The recorded max response for `CC(C)NC[C@H]1CCc2cc(CO)c([N+](=O)[O-])cc2N1` is -14.1

The recorded max response for CC1=C(C(=O)O)N2C(=O)C(NC(=O)C(N)c3ccc(O)cc3)C2SC1 (configuration not stated) is 14.9

----------
molecular target: Rap guanine nucleotide exchange factor 4 (Homo sapiens) (UniProt Q8WZA2); assay: Confirmatory qHTS for antagonist of cAMP-regulated guanine nucleotide exchange factor 4 (EPAC2) (AID 1645885); settings: EPAC2 Rap1B-BODIPY-GDP exchange fluorescence, biochemical; series mostly up to 12.7 µM; also: nearly all actives have a fitted effect of over 25% in size
Sequence (Q8WZA2 whole entry, looked up): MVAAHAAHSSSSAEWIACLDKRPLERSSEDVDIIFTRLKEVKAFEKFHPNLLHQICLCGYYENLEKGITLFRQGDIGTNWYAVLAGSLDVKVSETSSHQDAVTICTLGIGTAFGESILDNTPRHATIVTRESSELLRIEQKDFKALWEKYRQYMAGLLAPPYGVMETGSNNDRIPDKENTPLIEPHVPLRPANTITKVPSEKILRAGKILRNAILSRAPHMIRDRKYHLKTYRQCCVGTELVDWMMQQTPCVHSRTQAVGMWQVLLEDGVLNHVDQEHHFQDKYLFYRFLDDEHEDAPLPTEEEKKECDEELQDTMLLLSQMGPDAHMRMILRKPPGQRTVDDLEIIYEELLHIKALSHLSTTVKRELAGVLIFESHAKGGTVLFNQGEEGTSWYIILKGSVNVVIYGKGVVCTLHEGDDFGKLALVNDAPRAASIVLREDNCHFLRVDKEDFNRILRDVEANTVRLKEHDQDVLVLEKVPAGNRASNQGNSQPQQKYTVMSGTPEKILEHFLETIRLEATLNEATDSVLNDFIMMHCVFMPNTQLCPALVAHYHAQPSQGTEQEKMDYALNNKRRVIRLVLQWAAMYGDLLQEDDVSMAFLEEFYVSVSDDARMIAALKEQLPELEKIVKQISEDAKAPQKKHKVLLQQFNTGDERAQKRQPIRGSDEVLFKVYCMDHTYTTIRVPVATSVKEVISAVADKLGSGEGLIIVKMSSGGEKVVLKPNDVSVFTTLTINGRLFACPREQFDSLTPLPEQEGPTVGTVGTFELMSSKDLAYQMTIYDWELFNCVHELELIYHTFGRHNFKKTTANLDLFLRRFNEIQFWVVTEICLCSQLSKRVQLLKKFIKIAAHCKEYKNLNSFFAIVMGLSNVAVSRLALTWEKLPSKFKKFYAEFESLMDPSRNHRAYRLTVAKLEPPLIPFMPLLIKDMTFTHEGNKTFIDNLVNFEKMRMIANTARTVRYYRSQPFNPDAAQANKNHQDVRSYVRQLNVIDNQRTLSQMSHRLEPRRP
Results filed as inconclusive are left out. Active and inactive are the calls of the source. Calls come from the whole dose curve; as a rule, active = well fitted inhibition curve with a large enough effect; inconclusive = small, poorly fitted or top-dose-only effect; inactive = no such curve, though single readings can be large or run the other way.
Form entry, call: pick from active, inactive

Challenge: Would you mind telling me which call this test gave `COCCN(C)Cc1nc(C(c2ccccc2)c2ccccc2)no1` ?
Response given: active

Challenge: Would you mind telling me which call this test gave `Cc1ccc(S(=O)(=O)/N=C2/NC(=O)/C(=C/c3ccccc3)S2)cc1` ?
Response given: inactive

Challenge: Would you mind telling me which call this test gave `CCCCn1c(N)c(N(CCC(C)C)C(=O)Cc2ccc(S(=O)(=O)N3CCOCC3)s2)c(=O)[nH]c1=O` ?
Response given: inactive

Challenge: Would you mind telling me which call this test gave `Cc1ccc(CNS(=O)(=O)c2ccc(-n3cnnn3)c(C)c2)cc1` ?
Response given: inactive

Now look at this entry.
Challenge: Would you mind telling me which call this test gave CC(C)c1ccc(N(C(=O)c2csnn2)C(C(=O)NC(C)(C)C)c2cccnc2)cc1 (stereo not given) ?
Response given: inactive

----------
target: Rap guanine nucleotide exchange factor 3 (Homo sapiens) (UniProt O95398); experiment: Counterscreen qHTS for antagonist of cAMP-regulated guanine nucleotide exchange factor 3 (EPAC1) (AID 1645888); conditions: Rap1B-BODIPY-GDP nucleotide exchange, fluorescence; series mostly up to 154 µM;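 also: fluorescence loss as bound BODIPY-GDP is released from Rap1B; % of control where 0% means no effect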
Sequence (O95398 whole entry, looked up): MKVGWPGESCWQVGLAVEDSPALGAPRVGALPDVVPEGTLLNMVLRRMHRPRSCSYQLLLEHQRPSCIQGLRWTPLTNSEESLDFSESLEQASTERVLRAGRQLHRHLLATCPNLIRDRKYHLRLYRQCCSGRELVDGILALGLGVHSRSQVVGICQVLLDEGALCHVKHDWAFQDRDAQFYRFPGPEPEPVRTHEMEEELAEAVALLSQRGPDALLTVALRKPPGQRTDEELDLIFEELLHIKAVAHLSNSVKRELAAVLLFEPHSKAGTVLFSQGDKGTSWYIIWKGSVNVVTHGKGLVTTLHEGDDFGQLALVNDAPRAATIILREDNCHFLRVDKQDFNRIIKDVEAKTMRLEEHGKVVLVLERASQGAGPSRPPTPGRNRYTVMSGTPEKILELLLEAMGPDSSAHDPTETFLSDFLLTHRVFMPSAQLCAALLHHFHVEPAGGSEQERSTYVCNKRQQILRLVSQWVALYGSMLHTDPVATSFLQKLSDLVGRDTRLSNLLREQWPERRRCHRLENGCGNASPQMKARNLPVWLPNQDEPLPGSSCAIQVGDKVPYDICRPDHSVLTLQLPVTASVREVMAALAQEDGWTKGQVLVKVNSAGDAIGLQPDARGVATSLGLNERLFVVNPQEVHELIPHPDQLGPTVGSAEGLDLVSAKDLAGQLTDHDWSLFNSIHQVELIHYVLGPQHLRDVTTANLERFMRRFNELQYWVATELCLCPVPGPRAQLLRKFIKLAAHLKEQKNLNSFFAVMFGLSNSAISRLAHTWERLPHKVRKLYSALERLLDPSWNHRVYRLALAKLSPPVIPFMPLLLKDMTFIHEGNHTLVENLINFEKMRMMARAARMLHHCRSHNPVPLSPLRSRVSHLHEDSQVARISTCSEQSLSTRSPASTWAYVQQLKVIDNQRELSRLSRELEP
Records with an inconclusive call do not appear. The source made the active and inactive calls. Calls follow the shape of the dose curve; as a rule, active = well fitted inhibition curve with a large enough effect; inconclusive = small, poorly fitted or top-dose-only effect; inactive = no such curve, though single readings can be large or run the other way.
measurementType: activity change, negative = inhibition

Known results for molecules:
activity change, negative = inhibition on Rap guanine nucleotide exchange factor 3 (Homo sapiens) (UniProt O95398) for O=C1CC(Cc2ccccc2)C(=O)N1CCc1ccc2c(c1)OCO2 (stereo not drawn) is -4.71% [at 30.8 µM] (inactive)

activity change, negative = inhibition on Rap guanine nucleotide exchange factor 3 (Homo sapiens) (UniProt O95398) for `COCCn1c(SCC(=O)Nc2ccc3c(c2)CCC3)nc2ccccc2c1=O` is -10.3% [at 30.8 µM] (inactive)

activity change, negative = inhibition on Rap guanine nucleotide exchange factor 3 (Homo sapiens) (UniProt O95398) for `COC(=O)c1cc2oc(C)cc2n1Cc1cccc(Cl)c1` is inactive

activity change, negative = inhibition on Rap guanine nucleotide exchange factor 3 (Homo sapiens) (UniProt O95398) for `Cc1[nH]c(C)c2c(=O)n(Cc3ccc(Cl)cc3)ncc12` is inactive

activity change, negative = inhibition on Rap guanine nucleotide exchange factor 3 (Homo sapiens) (UniProt O95398) for `COc1ccccc1OCC(=O)Nc1cc(C(F)(F)F)ccc1-n1cncn1` is -12% [at 30.8 µM] (inactive)

Continuing:
activity change, negative = inhibition on Rap guanine nucleotide exchange factor 3 (Homo sapiens) (UniProt O95398) for `COC(=O)c1cc2sc(C)cc2n1Cc1ccccc1` is inactive

activity change, negative = inhibition on Rap guanine nucleotide exchange factor 3 (Homo sapiens) (UniProt O95398) for `COc1ccccc1OCC(=O)Nc1cccc(S(=O)(=O)NC2=NCCCCC2)c1` is inactive

activity change, negative = inhibition on Rap guanine nucleotide exchange factor 3 (Homo sapiens) (UniProt O95398) for `CCOc1ccc(NCc2nc3ccccc3n2CCOc2ccccc2)cc1` is 4.92% [at 30.8 µM] (inactive)

activity change, negative = inhibition on Rap guanine nucleotide exchange factor 3 (Homo sapiens) (UniProt O95398) for `O=C(/C=C/c1ccc2c(c1)OCO2)Nc1cc(S(=O)(=O)N2CCOCC2)ccc1N1CCOCC1` is inactive

activity change, negative = inhibition on Rap guanine nucleotide exchange factor 3 (Homo sapiens) (UniProt O95398) for CC1Oc2ccc(C#N)cc2N(Cc2ccccc2OC(F)(F)F)C1=O (stereo not drawn) is -10.7% [at 30.8 µM] (inactive)

activity change, negative = inhibition on Rap guanine nucleotide exchange factor 3 (Homo sapiens) (UniProt O95398) for Cc1ccc(C2CC(=O)Oc3cc(C)cc(C)c32)cc1 (stereo not drawn) is inactive

activity change, negative = inhibition on Rap guanine nucleotide exchange factor 3 (Homo sapiens) (UniProt O95398) for `CCn1c(C)nc2cc(C(=O)N/N=C(\C)c3ccccc3O)ccc21` is -28% [at 30.8 µM] (inactive)

activity change, negative = inhibition on Rap guanine nucleotide exchange factor 3 (Homo sapiens) (UniProt O95398) for COc1ccc(C(NC(C)=O)c2cc(Cl)c3cccnc3c2O)cc1 (stereo not drawn) is -6.93% [at 30.8 µM] (inactive)

activity change, negative = inhibition on Rap guanine nucleotide exchange factor 3 (Homo sapiens) (UniProt O95398) for `Cc1cccc(/C(N)=N/OC(=O)Cc2cccc3ccccc23)c1` is -15.4% [at 30.8 µM] (inactive)

activity change, negative = inhibition on Rap guanine nucleotide exchange factor 3 (Homo sapiens) (UniProt O95398) for `Cc1nc2c(C(=O)NCCC(C)C)c[nH]n2c(=O)c1Cl` is inactive

activity change, negative = inhibition on Rap guanine nucleotide exchange factor 3 (Homo sapiens) (UniProt O95398) for Cc1ccc(S(=O)(=O)NCCC(=O)N2CC(C)OC(C)C2)cc1 (stereo not drawn) is inactive

activity change, negative = inhibition on Rap guanine nucleotide exchange factor 3 (Homo sapiens) (UniProt O95398) for `CC1=NOC(=O)/C1=C\c1ccc(-c2ccc(Cl)cc2Cl)o1` is -37.2% [at 30.8 µM] (inactive)

activity change, negative = inhibition on Rap guanine nucleotide exchange factor 3 (Homo sapiens) (UniProt O95398) for `CC(=O)N1CCN(C(=O)COc2ccc(Br)cc2)CC1` is inactive

activity change, negative = inhibition on Rap guanine nucleotide exchange factor 3 (Homo sapiens) (UniProt O95398) for COc1ccc(C2c3c(ncn(CCCO)c3=N)Oc3ccc4ccccc4c32)cc1 (stereo not drawn) is 0.394% [at 30.8 µM] (inactive)

activity change, negative = inhibition on Rap guanine nucleotide exchange factor 3 (Homo sapiens) (UniProt O95398) for `COc1ccc(OC)c(Nc2nc3ccccc3nc2-n2nc(C)cc2C)c1` is inactive

activity change, negative = inhibition on Rap guanine nucleotide exchange factor 3 (Homo sapiens) (UniProt O95398) for CN1CCN(C(CNC(=O)c2ccc(Br)o2)c2ccc(F)cc2)CC1 (stereo not drawn) is -2.27% [at 30.8 µM] (inactive)
